Target: PAR2 (HT-29 cells) (Homo sapiens)
Construct: host or cells: HT-29
Sequence (P55085 26-397): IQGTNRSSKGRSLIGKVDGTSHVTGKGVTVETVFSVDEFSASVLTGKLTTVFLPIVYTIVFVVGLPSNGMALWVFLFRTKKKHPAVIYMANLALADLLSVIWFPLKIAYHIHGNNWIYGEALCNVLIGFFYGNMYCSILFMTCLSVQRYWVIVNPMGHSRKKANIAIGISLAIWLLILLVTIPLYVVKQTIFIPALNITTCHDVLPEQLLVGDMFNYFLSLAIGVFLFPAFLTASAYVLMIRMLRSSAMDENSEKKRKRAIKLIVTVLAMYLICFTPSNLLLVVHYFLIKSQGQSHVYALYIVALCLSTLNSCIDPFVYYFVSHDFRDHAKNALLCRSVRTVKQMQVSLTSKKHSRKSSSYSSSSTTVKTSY
Experiment: Ca FLIPR TETRA assay, ANTAGONIST mode, activator 3.1 U/mL trypsin
Assay type: cell-based
Settings: HT-29 cells, activator 3.1 U/mL trypsin; maximal antagonist concentration per Method (A: 0.1, 1 or 2 μM; B: 50 μM)
property.name: IC50 (nM)
Quick note: give the figure in nM, leave out the unit.

Record excerpt, results attached:
CC(C)(C)c1cc(-c2ccc(F)cc2)nc2cc(C(=O)N3CCN(C(=O)C4CC(C(=O)O)C4)CC3(C)C)oc12 (stereo not shown) [Example I-189] :: 28
C[C@H]1CN(C(=O)c2cc3nc(-c4ccc(F)cc4)cc(C4(C)CC4)c3o2)CCN1C(=O)C1CCC1 [Example I-115] :: 92
CC(C)(C)c1cc(-c2ccc(F)cc2)nc2cc(C(=O)N3CCN(c4cn[nH]c4)C(=O)C3(C)C)oc12 [Example I-182] :: 5.8

Next compound, IC50 to be filled in.
# query: IC50 of entry CC1(c2cc(-c3ccc(F)cc3)nc3cc(C(=O)N4CCN(C(=O)C(O)C5CC5)CC4(C)C)oc23)CC1 (stereo not shown) [Example I-31]
21000

* * *

Test: In vivo rat pharmacokinetics experiments
Settings: intravenous bolus 0.5 to 1 mg/kg, non-compartmental analysis
Procedure: Example 99: Protocol for Testing PAR2 Compounds In Vivo Rat Pharmacokinetics Experiments […] Rats were bled by venipuncture (jugular vein) and the samples were collected into tubes containing K3EDTA. […] Pharmacokinetic parameters were calculated using non-compartmental analysis.
property.name: Clp (mL/min/kg)
Number only, in mL/min/kg; omit the unit.

Examples with answers:
CC1(C)CCC(c2cc(C(C)(C)C)c3oc(C(=O)N4CCN(C(=O)CC5(C(=O)O)CCC5)CC4(C)C)cc3n2)CC1 :: 33
CC(C)(C)c1cc(-c2ccc(Cl)c(F)c2)nc2cc(C(=O)N3CCN(c4ccn[nH]4)C(=O)C3(C)C)oc12 :: 3.6

Now consider a different molecule.
Give the measured Clp of CC(C)(C)c1cc(-c2ccc(Cl)c(F)c2)nc2cc(C(=O)N3CCN(c4cn[nH]c4)C(=O)C3(C)C)oc12 .
3.4

* * *

Target: PAR2 (HT-29 cells) (Homo sapiens)
Construct: host or cells: HT-29
Experiment: Ca FLIPR TETRA assay, ANTAGONIST mode, activator 3.1 U/mL trypsin
Assay type: cell-based
Conditions: @ 50 (μM)
Listed here are compounds together with their documented Trypsin, % @ 50.
Give just the number in % @ 50; leave the unit off.

Recorded Trypsin, % @ 50, per entry:
CCC(CC)C(=O)N1CCN(C(=O)c2cc3nc(-c4ccc(F)cc4)cc(C(C)C)c3o2)C[C@@H]1C :: 70
CC(C)c1cc(-c2ccc(F)cc2)nc2cc(C(=O)N3CCN(C(=O)OC(C)(C)C)C[C@@H]3C)oc12 :: 60
CC(C)c1cc(-c2ccc(F)cc2)nc2cc(C(=O)N3CCN(C(=O)OC(C)(C)C)C[C@H]3C)oc12 :: 65
CC1(c2nc(-c3ccc(F)cc3)nc3cc(C(=O)N4CCNC(=O)C4(C)C)oc23)CC1 :: 49

Then there is this compound:
Item under review: CC(C)c1cc(-c2ccc(F)cc2)nc2cc(C(=O)N3CCN(C(=O)C4CCCC4)[C@@H](C)C3)oc12 . Reported Trypsin, % @ 50?
66

* * *

Biological target: PAR2 (HT-29 cells) (Homo sapiens, UniProt P55085)
Construct: host or cells: HT-29
Assay: Ca FLIPR TETRA assay, ANTAGONIST mode, activator 8 μM SLIGKV
Format: cell-based
Details: HT-29 cells, activator 8 μM SLIGKV; maximal antagonist concentration per Method (A: 0.1, 1 or 2 μM; B: 50 μM)
Criterion: IC50 strictly less than 4 nM. Met: Condition met. Not met: Condition not met.

# count of solved cases: 6
CC(C)c1cc(-c2ccc(F)cc2)nc2cc(C(=O)N3CCN(C(=O)C4CCCCO4)CC3(C)C)oc12 (stereo not shown) :: Condition not met
CC(C)(C)c1cc(C2CC3(CCC3)C2)nc2cc(C(=O)N3CCN(C(=O)[C@H]4C[C@@](C)(O)C4)CC3(C)C)oc12 :: Condition met
CC(C)c1cc(-c2ccc(F)cc2)nc2cc(C(=O)N3CCN(C(=O)c4ccon4)CC3(C)C)oc12 :: Condition met
CC(C)(C)c1cc(-c2ccc(F)cc2)nc2cc(C(=O)N3CCN(c4cn[nH]c4)C(=O)C3(C)C)oc12 :: Condition met
CC(C)(C)c1cc(-c2ccc(Cl)c(F)c2)nc2cc(C(=O)N3CCN(c4ccccn4)CC3(C)C)oc12 :: Condition not met
CC1(C)CCC(c2cc(C(C)(C)C)c3oc(C(=O)N4CCNC(=O)C4(C)C)cc3n2)CC1 :: Condition not met

We now examine a further molecule.
Strictly below 4 nM in IC50? CC(C)(C)c1cc(-c2ccc(Cl)c(F)c2)nc2cc(C(=O)N3CCN(C(=O)C4CCC(C(=O)O)O4)CC3(C)C)oc12 (stereo not shown)
Condition not met

* * *

Molecular target: PAR2 (HT-29 cells) (Homo sapiens, UniProt P55085)
Construct: host or cells: HT-29
Assay: Ca FLIPR TETRA assay, ANTAGONIST mode, activator 3.1 U/mL trypsin
Format: cell-based
Details: HT-29 cells; activator 3.1 U/mL trypsin; Method A: maximal concentration of antagonist 0.1, 1 or 2 μM
Mark each entry 1 if its IC50 sits below 3 nM, and 0 for all others.

Field: below-cutoff. Rule: recorded IC50 strictly less than 3 nM. Subject: CC(C)(C)c1cc(-c2ccc(Cl)c(F)c2)nc2cc(C(=O)N3CCN(S(C)(=O)=O)C(=O)C3(C)C)oc12 [Example I-353]
0

Lookup Cc1ccc(N2CCN(C(=O)c3cc4nc(C5CCC(C)(C)CC5)cc(C(C)(C)C)c4o3)C(C)(C)C2)nc1-c1nnn[nH]1 [Example I-533]
1

Please answer likewise for Cc1n[nH]c(C(=O)N2CCN(C(=O)c3cc4nc(C5CCC(Cl)(Cl)CC5)cc(C(C)(C)C)c4o3)C(C)(C)C2)n1 [Example I-304]
1

Lookup CC(C)(C)c1cc(-c2ccc(Cl)c(F)c2)nc2cc(C(=O)N3CCN(S(C)(=O)=O)CC3(C)C)oc12 [Example I-508]
0

Can you check Cc1cccnc1N1CCN(C(=O)c2cc3nc(-c4ccc(Cl)cc4)cc(C(C)(C)C)c3o2)C(C)(C)C1 [Example I-394] next?
0

Also need Cc1nc(N2CCN(C(=O)c3cc4nc(-c5ccc(Cl)cc5)cc(C(C)(C)C)c4o3)C(C)(C)C2)ncc1C(=O)O [Example I-410] , thanks.
1

Cool, now Cc1ccc(N2CCN(C(=O)c3cc4nc(-c5ccc(Cl)c(F)c5)cc(C(C)(C)C)c4o3)C(C)(C)C2)nc1-c1nnn[nH]1 [Example I-532]
1

* * *

Target: PAR2 (HT-29 cells) (Homo sapiens, UniProt P55085)
Construct: host or cells: HT-29
Experiment: Ca FLIPR TETRA assay, ANTAGONIST mode, activator 3.1 U/mL trypsin
Format: cell-based
Conditions: HT-29 cells; activator 3.1 U/mL trypsin; Method A: maximal concentration of antagonist 0.1, 1 or 2 μM
property.name: pIC50
# pIC50 is unitless: minus log10 of the molar concentration; print number only

CC(C)(C)c1cc(-c2ccc(Cl)cc2)nc2cc(C(=O)N3CCN(c4ccccn4)C(=O)C3(C)C)oc12 :: 7.49
Cc1cc(N2CCN(C(=O)c3cc4nc(C5CCC(C)(C)CC5)cc(C(C)(C)C)c4o3)C(C)(C)C2=O)n[nH]1 :: 7.40
CC(C)(C)c1cc(-c2ccc(Cl)c(F)c2)nc2cc(C(=O)N3CCN(C(=O)[C@@H]4CC[C@@H]4C(=O)O)CC3(C)C)oc12 :: 9.10
CC(C)(C)c1cc(-c2ccc(Cl)cc2)nc2cc(C(=O)N3CCN(c4cccc(-c5nnn[nH]5)n4)CC3(C)C)oc12 :: 9.52
CC(C)(C)c1cc(-c2ccc(Cl)c(F)c2)nc2cc(C(=O)N3CCN(c4ccncn4)CC3(C)C)oc12 :: 7.82

pIC50 lookup needed for CC1(C)CCC(c2cc(C(C)(C)C)c3oc(C(=O)N4CCN(C(=O)c5ccc(C(=O)O)nc5)CC4(C)C)cc3n2)CC1 , thanks.
6.62

Continue with CC(C)(C)c1cc(-c2ccc(Cl)cc2)nc2cc(C(=O)N3CCN(c4ncccn4)C(=O)C3(C)C)oc12
8.55

# iterate: CC(C)(C)c1cc(-c2ccc(F)cc2)nc2cc(C(=O)N3CCN(N4CCNC(=O)CC4(C)C)CC3(C)C)oc12
7.17

Repeat for the following compound: CC(C)(C)c1cc(-c2ccc(Cl)c(F)c2)nc2cc(C(=O)N3CCN(c4cnc(C(=O)O)cn4)CC3(C)C)oc12
8.38

How about this compound: CC(C)(C)c1cc(-c2ccc(Cl)c(F)c2)nc2cc(C(=O)N3CCN(C(=O)NS(=O)(=O)c4ccccc4)CC3(C)C)oc12
9.30

Thanks! And CC(C)(C)c1cc(-c2ccc(Cl)c(F)c2)nc2cc(C(=O)N3CCN(c4cccc(C(=O)O)n4)CC3(C)C)oc12 ?
9.52

Thanks! And Cc1ccc(N2CCN(C(=O)c3cc4nc(-c5ccc(Cl)cc5)cc(C(C)(C)C)c4o3)C(C)(C)C2)nc1 ?
7.39

// same read-out, input: CC(C)(C)c1cc(N2CCC(C(F)(F)F)CC2)nc2cc(C(=O)N3CCN(C(=O)[C@H]4C[C@](C)(O)C4)CC3(C)C)oc12
8.11
